Reference source for all entries: patent US3954780A

# System: acute oedema provoked by serotonine in the rat
# protocol-notes: Anti-serotonic activity, serotonine-induced acute paw oedema
# Format: in vivo
# assay-context: 30 mg/kg oral, 30 minutes before serotonine
metric-name: average percentage reduction in oedema after 1 hour (%)
Field: numeric (%). Do not append units.

O=C(OCCCN1CCCCC1)C(Cc1csc2ccccc12)CC1CCCO1 (stereo not shown) [Compound 55]	12.3
CCN(CC)CCCOC(=O)C(Cc1csc2ccccc12)CC1CCCO1 (stereo not shown) [Compound 53]	19.4
O=C(OCCN1CCCC1)C(Cc1csc2ccccc12)CC1CCCO1 (stereo not shown) [Compound 49]	17.8

# evaluate next
response.value for O=C(OCCCN1CCCC1)C(Cc1csc2ccccc12)CC1CCCO1 (stereo not shown) [Compound 54] (field: average percentage reduction in oedema after 1 hour) = 22.4
